Recorded inhibition at 0.1 µM by entry
system-tested: EGFR (Homo sapiens, UniProt P00533)
Sequence (P00533 25-1210): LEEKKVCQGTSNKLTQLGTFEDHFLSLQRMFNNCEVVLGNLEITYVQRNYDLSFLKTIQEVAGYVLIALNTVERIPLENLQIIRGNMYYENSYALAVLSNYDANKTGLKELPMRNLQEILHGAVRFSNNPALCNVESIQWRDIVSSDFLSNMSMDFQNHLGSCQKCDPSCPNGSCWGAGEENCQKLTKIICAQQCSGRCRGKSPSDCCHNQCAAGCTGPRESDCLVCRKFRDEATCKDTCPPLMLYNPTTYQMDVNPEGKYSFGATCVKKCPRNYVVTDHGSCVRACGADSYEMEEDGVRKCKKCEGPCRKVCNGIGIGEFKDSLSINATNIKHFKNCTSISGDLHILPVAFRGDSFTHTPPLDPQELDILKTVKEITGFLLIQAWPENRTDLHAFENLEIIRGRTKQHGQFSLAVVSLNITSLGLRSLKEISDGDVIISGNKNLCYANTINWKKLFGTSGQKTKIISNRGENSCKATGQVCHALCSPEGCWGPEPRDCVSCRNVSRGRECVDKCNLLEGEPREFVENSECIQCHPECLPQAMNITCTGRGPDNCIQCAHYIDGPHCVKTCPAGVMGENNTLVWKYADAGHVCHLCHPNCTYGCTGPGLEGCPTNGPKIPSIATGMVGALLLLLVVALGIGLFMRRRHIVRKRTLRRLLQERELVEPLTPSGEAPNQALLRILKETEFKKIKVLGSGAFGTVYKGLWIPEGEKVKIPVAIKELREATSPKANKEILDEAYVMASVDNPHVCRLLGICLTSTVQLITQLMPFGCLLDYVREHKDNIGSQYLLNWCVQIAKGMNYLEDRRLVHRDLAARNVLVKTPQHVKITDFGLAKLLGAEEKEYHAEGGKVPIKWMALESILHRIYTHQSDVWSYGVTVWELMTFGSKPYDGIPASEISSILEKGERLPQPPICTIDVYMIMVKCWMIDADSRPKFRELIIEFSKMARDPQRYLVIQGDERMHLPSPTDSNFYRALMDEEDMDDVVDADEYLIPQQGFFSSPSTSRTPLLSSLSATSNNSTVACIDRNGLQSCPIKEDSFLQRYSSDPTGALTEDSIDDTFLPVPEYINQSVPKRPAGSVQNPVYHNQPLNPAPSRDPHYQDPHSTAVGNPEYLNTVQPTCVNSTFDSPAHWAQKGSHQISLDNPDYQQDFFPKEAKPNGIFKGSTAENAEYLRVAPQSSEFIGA
method-notes: In vitro EGFR tyrosine kinase inhibitory assay (Z'-LYTE, SelectScreen)
Assay type: biochemical
stated-conditions: 100 nM compound, 10 μM ATP; read-out: % Inhibition mean, EGFR (ErbB1)
Enter the number, and then the unit.

Record excerpt, results attached:
> print(dat)
                                   molecule              property  observed
1  Cc1c(C(=O)NCCCC(=O)NO)sc2ncnc(Nc3ccccc3)c12 [Compound 20b]  inhibition at 0.1 µM       35%
2  Cc1c(C(=O)NCCCC(=O)NO)sc2ncnc(Nc3ccc(NC(=O)Nc4cccc(C(F)(F)F)c4)cc3)c12 [Compound 12c]  inhibition at 0.1 µM        7%
3  Cc1c(C(=O)NCCCC(=O)NO)sc2ncnc(Nc3ccc(F)c(Cl)c3)c12 [Compound 20d]  inhibition at 0.1 µM       58%

Now look at this entry.
# input molecule: Cc1c(C(=O)NO)sc2ncnc(Nc3ccc(Cl)cc3)c12 [Compound 15c] ; wanted: its inhibition at 0.1 µM
81%

----------
system-tested: UniProtKB P00533
method-notes: In vitro EGFR tyrosine kinase inhibitory assay (Z'-LYTE, SelectScreen)
Format: biochemical
stated-conditions: 10 µM single dose
property: inhibition at 10 µM (%)
The answer is to be given in %; state only the numeric part.

Record excerpt, results attached:
> print(dat)
                                   compound  observed
1  Cc1c(C(=O)NCCC(=O)NO)sc2ncnc(Nc3ccc(NC(=O)Nc4cccc(C(F)(F)F)c4)cc3)c12 [Compound 11c]        11
2  Cc1c(C(=O)NO)sc2ncnc(Nc3ccc(NC(=O)Nc4cccc(C(F)(F)F)c4)cc3)c12        11
3  Cc1c(C(=O)NCCCC(=O)NO)sc2ncnc(Nc3ccc(Cl)cc3)c12 [Compound 20c]        96
4  COc1cccc(NC(=O)Nc2ccc(Nc3ncnc4sc(C(=O)NCCCC(=O)NO)c(C)c34)cc2)c1 [Compound 12b]         5
5  Cc1c(C(=O)NO)sc2ncnc(Nc3ccc(F)c(Cl)c3)c12 [Compound 15d]        97

# input compound: Cc1c(C(=O)NCCC(=O)NO)sc2ncnc(Nc3ccc(F)c(Cl)c3)c12 [Compound 19d] ; wanted: its inhibition at 10 µM
96

# input compound: Cc1c(C(=O)NO)sc2ncnc(Nc3cccc4[nH]cnc34)c12 [Compound 15a] ; wanted: its inhibition at 10 µM
45

# input compound: Cc1c(C(=O)NO)sc2ncnc(Nc3ccccc3)c12 [Compound 15b] ; wanted: its inhibition at 10 µM
98

# input compound: `Cc1c(C(=O)NO)sc2ncnc(Nc3ccc(NC(=S)Nc4ccccc4)cc3)c12` ; wanted: its inhibition at 10 µM
78

# input compound: Cc1c(C(=O)NCCC(=O)NO)sc2ncnc(Nc3ccccc3)c12 [Compound 19b] ; wanted: its inhibition at 10 µM
76

# input compound: Cc1c(C(=O)NCCC(=O)NO)sc2ncnc(Nc3ccc(NC(=O)Nc4ccccc4)cc3)c12 [Compound 11a] ; wanted: its inhibition at 10 µM
12

# input compound: Cc1c(C(=O)NCCCC(=O)NO)sc2ncnc(Nc3ccccc3)c12 [Compound 20b] ; wanted: its inhibition at 10 µM
92

# input compound: Cc1c(C(=O)NCCCC(=O)NO)sc2ncnc(Nc3ccc(NC(=O)Nc4cccc(C(F)(F)F)c4)cc3)c12 [Compound 12c] ; wanted: its inhibition at 10 µM
66

# input compound: `COc1cccc(NC(=O)Nc2ccc(Nc3ncnc4sc(C(=O)NO)c(C)c34)cc2)c1` ; wanted: its inhibition at 10 µM
39

# input compound: COc1cccc(NC(=O)Nc2ccc(Nc3ncnc4sc(C(=O)NCCC(=O)NO)c(C)c34)cc2)c1 [Compound 11b] ; wanted: its inhibition at 10 µM
5

----------
Recorded inhibition at 0.001 µM by entry
system-tested: UniProt:P00533
method-notes: In vitro EGFR tyrosine kinase inhibitory assay (Z'-LYTE, SelectScreen)
Assay type: biochemical
stated-conditions: 1 nM compound, 10 μM ATP; read-out: % Inhibition mean, EGFR (ErbB1)
The answer is to be given in %; state only the numeric part.

Record excerpt, results attached:
> print(dat)
                                   molecule  units.of.measure  observed
1  Cc1c(C(=O)NCCCC(=O)NO)sc2ncnc(Nc3ccc(F)c(Cl)c3)c12 [Compound 20d]                 %         5
2  Cc1c(C(=O)NCCCC(=O)NO)sc2ncnc(Nc3ccccc3)c12 [Compound 20b]                 %         1

# input molecule: Cc1c(C(=O)NO)sc2ncnc(Nc3ccc(Cl)cc3)c12 [Compound 15c] ; wanted: its inhibition at 0.001 µM
5

# input molecule: Cc1c(C(=O)NCCCC(=O)NO)sc2ncnc(Nc3ccc(NC(=O)Nc4cccc(C(F)(F)F)c4)cc3)c12 [Compound 12c] ; wanted: its inhibition at 0.001 µM
4

----------
Test system: SNB-75
method-notes: NCI one-dose screen
Type: cell-based, human
stated-conditions: CNS SNB-75, 10 µM single dose
property: Growth Percent
Enter the number, and then the unit.

Field: Growth Percent (SNB-75). Entry: Cc1c(C(=O)NCCC(=O)NO)sc2ncnc(Nc3ccc(F)c(Cl)c3)c12 [Compound 19d]
97.5%

----------
System: K-562
method-notes: NCI one-dose screen
Type: cell-based, human
stated-conditions: Leukemia K-562, 10 µM single dose
From the text: All of the synthesised structures were selected and submitted to NCI based on computer modelling techniques and the degree of diversity of structures for the evaluation of their antiproliferative activity. […]
property: Growth Percent (%)
The answer is to be given in %; state only the numeric part.

Record excerpt, results attached:
> print(dat)
                                   molecule  observed
1  Cc1c(C(=O)NO)sc2ncnc(Nc3ccc(Cl)cc3)c12 [Compound 15c]     105.0
2  Cc1c(C(=O)NCCC(=O)NO)sc2ncnc(Nc3ccc(F)c(Cl)c3)c12 [Compound 19d]     113.3
3  Cc1c(C(=O)NCCCC(=O)NO)sc2ncnc(Nc3ccc(Cl)cc3)c12 [Compound 20c]     108.0

Now look at this entry.
# input molecule: Cc1c(C(=O)NO)sc2ncnc(Nc3cccc4[nH]cnc34)c12 [Compound 15a] ; wanted: its Growth Percent
101.00

----------
system-tested: EGFR (Homo sapiens, UniProt P00533)
method-notes: In vitro EGFR tyrosine kinase inhibitory assay (Z'-LYTE, SelectScreen)
Format: biochemical
stated-conditions: read-out: IC50 in enzyme assays EGFR
property: IC50 (nM)
The answer is to be given in nM; state only the numeric part.

# input molecule: Cc1c(C(=O)NCCCC(=O)NO)sc2ncnc(Nc3ccc(NC(=O)Nc4cccc(C(F)(F)F)c4)cc3)c12 [Compound 12c] ; wanted: its IC50
1140

# input molecule: Cc1c(C(=O)NO)sc2ncnc(Nc3ccc(Cl)cc3)c12 [Compound 15c] ; wanted: its IC50
19

# input molecule: Cc1c(C(=O)NCCCC(=O)NO)sc2ncnc(Nc3ccccc3)c12 [Compound 20b] ; wanted: its IC50
155

# input molecule: Cc1c(C(=O)NCCCC(=O)NO)sc2ncnc(Nc3ccc(F)c(Cl)c3)c12 [Compound 20d] ; wanted: its IC50
68

----------
system-tested: VEGFR-2 (Homo sapiens, UniProt P35968)
Sequence (P35968 20-1356): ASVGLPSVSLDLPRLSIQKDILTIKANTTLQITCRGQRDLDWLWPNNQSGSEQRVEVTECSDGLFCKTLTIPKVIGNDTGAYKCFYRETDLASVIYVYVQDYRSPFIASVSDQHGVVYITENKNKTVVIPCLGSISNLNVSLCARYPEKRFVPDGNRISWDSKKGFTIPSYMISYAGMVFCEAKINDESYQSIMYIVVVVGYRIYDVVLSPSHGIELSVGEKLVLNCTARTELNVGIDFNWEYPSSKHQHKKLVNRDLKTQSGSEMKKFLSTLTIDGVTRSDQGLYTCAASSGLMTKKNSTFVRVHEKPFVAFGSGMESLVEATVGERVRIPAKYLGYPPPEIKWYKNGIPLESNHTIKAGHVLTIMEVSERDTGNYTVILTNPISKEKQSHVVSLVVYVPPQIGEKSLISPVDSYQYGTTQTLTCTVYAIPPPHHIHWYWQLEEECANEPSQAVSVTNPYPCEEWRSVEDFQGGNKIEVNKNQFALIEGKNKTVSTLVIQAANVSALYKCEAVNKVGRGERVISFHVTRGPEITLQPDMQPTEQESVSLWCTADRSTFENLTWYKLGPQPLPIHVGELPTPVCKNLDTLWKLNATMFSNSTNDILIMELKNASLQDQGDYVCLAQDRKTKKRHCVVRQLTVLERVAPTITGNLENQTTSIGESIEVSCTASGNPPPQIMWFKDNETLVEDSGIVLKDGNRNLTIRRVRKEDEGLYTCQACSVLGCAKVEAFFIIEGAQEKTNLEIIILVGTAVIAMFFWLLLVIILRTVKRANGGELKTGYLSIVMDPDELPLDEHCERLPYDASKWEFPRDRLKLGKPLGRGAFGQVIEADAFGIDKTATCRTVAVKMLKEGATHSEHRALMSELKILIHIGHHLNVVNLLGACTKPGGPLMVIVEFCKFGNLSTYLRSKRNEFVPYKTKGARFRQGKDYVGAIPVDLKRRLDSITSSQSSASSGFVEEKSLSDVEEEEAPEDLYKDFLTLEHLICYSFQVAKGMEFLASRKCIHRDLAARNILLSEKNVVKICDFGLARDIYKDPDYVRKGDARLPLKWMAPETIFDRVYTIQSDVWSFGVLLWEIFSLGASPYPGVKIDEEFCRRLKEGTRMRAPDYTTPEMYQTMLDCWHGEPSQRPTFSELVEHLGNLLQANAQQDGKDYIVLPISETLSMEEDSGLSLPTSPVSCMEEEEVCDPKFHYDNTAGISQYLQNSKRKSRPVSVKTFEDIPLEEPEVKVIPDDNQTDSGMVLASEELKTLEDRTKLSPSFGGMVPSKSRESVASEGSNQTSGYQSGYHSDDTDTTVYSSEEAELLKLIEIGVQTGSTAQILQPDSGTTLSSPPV
method-notes: In vitro VEGFR-2 tyrosine kinase inhibitory assay (Z'-LYTE, SelectScreen)
Assay type: biochemical
stated-conditions: 10 µM single dose
Protocol: The target compounds were evaluated for their in vitro inhibitory activities against EGFR, VEGFR-2, and HDAC6. […] Initially, all of the synthesised target compounds were evaluated for their percent inhibitory activity against EGFR, VEGFR-2, and HDACs at 10 µM single dose concentration, in which their mean percent inhibition is summarised in (Figure 5, Tables 1 and [2]). […]
property: inhibition at 10 µM (%)
The answer is to be given in %; state only the numeric part.

> print(dat)
                                   compound             property  observed
1  Cc1c(C(=O)NCCC(=O)NO)sc2ncnc(Nc3ccc(NC(=O)Nc4ccccc4)cc3)c12 [Compound 11a]  inhibition at 10 µM        47

# input compound: Cc1c(C(=O)NCCCC(=O)NO)sc2ncnc(Nc3ccc(F)c(Cl)c3)c12 [Compound 20d] ; wanted: its inhibition at 10 µM
20

# input compound: COc1cccc(NC(=O)Nc2ccc(Nc3ncnc4sc(C(=O)NCCCC(=O)NO)c(C)c34)cc2)c1 [Compound 12b] ; wanted: its inhibition at 10 µM
83

# input compound: Cc1c(C(=O)NCCCC(=O)NO)sc2ncnc(Nc3ccccc3)c12 [Compound 20b] ; wanted: its inhibition at 10 µM
25

# input compound: Cc1c(C(=O)NO)sc2ncnc(Nc3ccccc3)c12 [Compound 15b] ; wanted: its inhibition at 10 µM
32

# input compound: `Cc1c(C(=O)NO)sc2ncnc(Nc3ccc(NC(=S)Nc4ccccc4)cc3)c12` ; wanted: its inhibition at 10 µM
45

# input compound: Cc1c(C(=O)NCCC(=O)NO)sc2ncnc(Nc3ccc(NC(=O)Nc4cccc(C(F)(F)F)c4)cc3)c12 [Compound 11c] ; wanted: its inhibition at 10 µM
91

# input compound: Cc1c(C(=O)NCCC(=O)NO)sc2ncnc(Nc3ccc(Cl)cc3)c12 [Compound 19c] ; wanted: its inhibition at 10 µM
21
